assayed target: Cell division control protein 42 homolog (Homo sapiens)
experimental details: inhibition of fluorescent GTP binding to constitutively active Cdc42 – biochemical, multiplex bead flow cytometry, Bodipy-FL-GTP, dose response (AID 1333)
test parameters: bead-based flow cytometry; series mostly up to 100 µM
Results with a measured potency or affinity are listed apart. Active and inactive are the calls of the source.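 The calls were made as follows: active = fitted half-maximal concentration within the tested dose range, moderate curve steepness, a statistically real signal drop, and little compound fluorescence or tag-binding interference; inactive = the rest.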
assay endpoint: outcome

Past entries and their recorded results:
{"compound": "Cc1cc(-c2n[nH]c(=S)n2/N=C/c2cccc([N+](=O)[O-])c2)n[nH]1", "observed measurement": "inactive"}
{"compound": "NC(=S)N=Nc1c(O)[nH]c2c(Br)cc(Br)cc12", "observed measurement": "inactive"}
{"compound": "O=C(O)c1cc([N+](=O)[O-])ccc1NCc1ccccc1Cl", "observed measurement": "inactive"}
{"compound": "OC(CNCCC1C=Nc2ccccc21)Cn1c2ccc(Cl)cc2c2cc(Cl)ccc21 (configuration not stated)", "observed measurement": "inactive"}
{"compound": "COc1ccc(OC)c(Nc2nc(-c3sc(N)nc3C)cs2)c1", "observed measurement": "inactive"}
{"compound": "CC1Cc2ccccc2N1S(=O)(=O)c1cccc(C(=O)NCCCO)c1 (configuration not stated)", "observed measurement": "inactive"}
{"compound": "Cc1cccc(CNCc2sc(C(=O)O)cc2C)c1", "observed measurement": "inactive"}
{"compound": "CCN1/C(=C\\C=C2\\C(=O)N(c3ccccc3)C(=S)N2C)Sc2ccccc21", "observed measurement": "inactive"}
{"compound": "Cc1cccc(CN2C(=O)N/C(=C/c3ccc(C)s3)C2=O)c1", "observed measurement": "inactive"}
{"compound": "CN(/N=C/C=C/c1ccccc1)C1=NS(=O)(=O)c2ccccc21", "observed measurement": "inactive"}

# per-item lookup of outcome; items listed below
1. COc1ccc2o/c(=N/NC(=O)c3cccs3)c(C(N)=O)cc2c1
2. C=CCSc1nc(N)c(C#N)c(-c2ccc(C)cc2)c1C#N
3. Cc1nc2ccccn2c1-c1csc(Nc2cccc(O)c2)n1
4. CCC(C(=O)NC1CCCC1)N(C(=O)Cn1nnc(-c2ccc(C)o2)n1)c1cnc2ccccc2c1 (configuration not stated)
5. O=C1c2ccccc2-n2c1nc1ccccc1c2=O
6. Cc1nonc1OCCNc1ccc([N+](=O)[O-])cc1[N+](=O)[O-]
7. COc1ccc(-c2cc(C(F)(F)F)n3nc(C(=O)O)cc3n2)cc1OC

## Result
1. inactive
2. inactive
3. inactive
4. inactive
5. inactive
6. inactive
7. inactive

# per-item lookup of outcome; items listed below
1. O=C(Nc1cccc(-c2nnc(-c3ccco3)o2)c1)c1ccccc1
2. COc1cccc(NC(=O)CSc2nc3c([nH]c4ccccc43)c(=O)n2C)c1
3. CCN(CC)c1ccc(/C=c2/sc3nnc(-c4ccccc4C)n3c2=O)cc1
4. COCCOC(=O)c1c(C)oc2ccc(OC(=O)c3ccc4c(c3)OCO4)cc12

## Result
["inactive", "inactive", "inactive", "inactive"]

## Task Recorded outcome for Nc1nonc1C(=O)NCCN=Cc1cc(Cc2ccccc2)cc(Br)c1O with Cell division control protein 42 homolog (Homo sapiens), please?
## Result inactive

----------
assayed target: Beta-adrenergic receptor kinase 1 (Homo sapiens) (UniProt P25098)
Sequence (P25098 whole entry, looked up): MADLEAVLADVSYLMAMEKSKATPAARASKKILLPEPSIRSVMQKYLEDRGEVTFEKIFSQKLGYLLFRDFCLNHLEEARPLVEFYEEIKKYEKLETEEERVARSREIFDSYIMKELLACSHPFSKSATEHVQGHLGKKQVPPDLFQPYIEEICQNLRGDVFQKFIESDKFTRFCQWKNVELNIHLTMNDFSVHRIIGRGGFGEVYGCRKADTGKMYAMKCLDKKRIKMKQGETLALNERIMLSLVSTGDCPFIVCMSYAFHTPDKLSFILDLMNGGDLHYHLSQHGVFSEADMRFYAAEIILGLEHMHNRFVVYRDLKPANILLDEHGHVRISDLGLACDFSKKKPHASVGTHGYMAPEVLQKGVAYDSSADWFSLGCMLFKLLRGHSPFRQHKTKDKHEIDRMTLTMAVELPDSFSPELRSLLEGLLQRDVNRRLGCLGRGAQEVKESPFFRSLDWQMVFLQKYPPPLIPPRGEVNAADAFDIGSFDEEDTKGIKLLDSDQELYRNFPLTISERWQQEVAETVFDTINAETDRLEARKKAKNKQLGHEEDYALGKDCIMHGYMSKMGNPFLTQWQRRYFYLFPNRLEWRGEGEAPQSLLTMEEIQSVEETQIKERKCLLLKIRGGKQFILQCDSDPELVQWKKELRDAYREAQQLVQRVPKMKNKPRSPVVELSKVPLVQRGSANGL
experimental details: GRK2 binders displacing RNA aptamer, biochemical, validation, human GRK2, bead flow cytometry (AID 488806)
test parameters: bead-bound GRK2, FAM-aptamer displacement, at 10 µM
Activity calls are given as the source filed them.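 Rule for the calls: active = aptamer binding inhibition above 30%, about 3 SD of noise from non-fluorescent compounds; inactive = inhibition at or below 30%.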
Use one of these outcomes when replying: True = active, False = inactive

{"molecule": "CC(=O)Nc1ccc(S(=O)(=O)c2ccc(N)cc2)cc1", "class name": "False"}
{"molecule": "Cc1ccc(/C(=C\\CN2CCCC2)c2ccccn2)cc1", "class name": "False"}
{"molecule": "CCOC(=O)n1c(=O)oc2ccccc21", "class name": "False"}
{"molecule": "Cn1c(=O)[nH]c(=O)c2c1nc(NCc1ccco1)n2CCCc1ccccc1", "class name": "False"}
{"molecule": "CC(C)c1ccc(OCc2ccc(C(=O)O)o2)cc1", "class name": "False"}

## Task Name the outcome recorded for COc1ccc(C(C)N2CC34C=CC(O3)C(C(=O)OCC(C)C)C4C2=O)cc1 (stereo unspecified) in the assay.
## Result False

## Task Name the outcome recorded for O=C(Nc1cccc(Oc2c(F)c(F)c(F)c(F)c2F)c1)N1C[C@@H]2C[C@@H](C1)c1cccc(=O)n1C2 in the assay.
## Result False

## Task Name the outcome recorded for COc1ccc(C(=O)CC2OC(=O)c3c2ccc(OC)c3OC)cc1 (stereo unspecified) in the assay.
## Result False

## Task Name the outcome recorded for Cc1ccc2c(c1C)NC(C(=O)O)C1CC=CC21 (stereo unspecified) in the assay.
## Result True

## Task Name the outcome recorded for COc1ccc2c(=O)c(-c3cnn(-c4ccccc4)c3)c(C)oc2c1 in the assay.
## Result False

## Task Name the outcome recorded for O=c1c2ccccc2nc2n1CCCN2 in the assay.
## Result False

----------
experimental details: reduced mouse 2C T cell binding to pMHC/ICAM-1 vesicles – MLPCN validation set, flow cytometry, LFA-1/ICAM-1 modulator project, pilot screen (AID 2523);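 also: mean PE anti-B7-1 fluorescence of CD8+ cells relative to row control; 100% = QL9-loaded vesicles with DMSO vehicle in the same plate row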
test parameters: 2C mouse CD8+ T cells, at 7 µM, active compounds read low
assay endpoint: vesicle binding response (%)
One number for each entry, in %.

Past entries and their recorded results:
{"compound": "Cc1cccc(N2CCN(C(=S)c3ccccc3)CC2)c1", "result units": "%", "vesicle binding response": 5220}
{"compound": "COc1ccc2[nH]c(=O)c(CNC3CCCCC3)cc2c1", "result units": "%", "vesicle binding response": 244}
{"compound": "COc1ccc(C(=O)CCN2CCc3cc(OC)c(OC)cc3C2)cc1", "result units": "%", "vesicle binding response": 115}

# per-item lookup of vesicle binding response; items listed below
1. O=C(CN1CC[n+]2c(-c3cccs3)csc21)c1ccc(Br)cc1
2. CCCc1cc(=O)[nH]c(=S)[nH]1
3. OC(CCCN1CCC(O)(c2ccc(Cl)cc2)CC1)c1ccc(F)cc1 (stereo unspecified)

## Result
1: 142; 2: 144; 3: 168

----------
experimental details: TOR pathway GLN3 branch reporter MEP2-GFP changes – S. cerevisiae, multiplex flow cytometry, primary screen (AID 1867);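 also: median GFP channel fluorescence of barcode-gated MEP2-GFP cells measured by flow cytometry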
test parameters: S. cerevisiae MEP2-GFP strain, 3 h, at 10 µM, active compounds read high, 100% means same as DMSO wells
Results filed as inconclusive are left out.
I'd be grateful if you could share measured GFP response vs DMSO for these entries.
Numbers only, in %.

Past entries and their recorded results:
{"compound": "CC(=O)N[C@@H](CS)C(=O)O", "observed measurement": 111}
{"compound": "CC1(C)CC(=O)c2cnc(NC(=O)C3CCCC3)nc2C1", "observed measurement": 96.2}
{"compound": "COCCCN1C(=O)C(=O)/C(=C(/O)c2ccc3c(c2)CC(C)O3)C1c1cccnc1 (stereo unspecified)", "observed measurement": 102}

# per-item lookup of GFP response vs DMSO; items listed below
1. CCOC(=O)c1ccc(NC(=S)NCCc2ccccc2F)cc1
2. CC(=O)c1c[nH]c2ccc(C)cc2c1=O
3. O=C(O)CCNC(=O)c1ccccc1
4. CCCCCC(=O)O[C@]1(C(C)=O)CC[C@H]2[C@@H]3CCC4=CC(=O)CC[C@]4(C)[C@H]3CC[C@@]21C

## Result
1. 107
2. 99.6
3. 151
4. 95.6

# per-item lookup of GFP response vs DMSO; items listed below
1. O=C1CC[C@@H](CN(Cc2ccccc2)Cc2cn[nH]c2-c2cc3ccccc3o2)N1
2. OC12CCCCC1C(c1ccc3c(c1)OCO3)N(Cc1cccc(F)c1)CC2 (stereo unspecified)
3. Cc1ccc2nc(C)c3c(c2c1)OC(C(C)(Cl)Br)C3 (stereo unspecified)
4. CCOC(=O)[C@H]1O[C@@H]1C(=O)N[C@@H](CC(C)C)C(=O)NCCC(C)C

## Result
108
90.9
102
135

----------
I'd be grateful if you could share measured superoxide response (% of plate) for these entries.
experimental details: calorie-restriction mimetic ROS inhibitors, yeast – validation compound set, pilot screen (AID 2706);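 also: yeast exposed to compound for one week at 30 degrees C before staining; 100% = mean of all compound wells on the same plate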
test parameters: S. cerevisiae aging, superoxide DHE fluorescence; at 10 µM; active compounds read low
Active and inactive are the calls of the source.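 How the source made its calls: active means superoxide response below 65% of plate, a cut near 3 SD across the whole screen; inactive means the rest.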

Past entries and their recorded results:
{"compound": "CN(C)c1ccc(CNCCC(Cc2ccccc2)c2ccco2)cc1 (stereo unspecified)", "assay endpoint": "superoxide response (% of plate)", "observed measurement": "92.3% (inactive)"}
{"compound": "Cc1ccccc1NC(=O)c1c(C)cc(=O)oc1C", "assay endpoint": "superoxide response (% of plate)", "observed measurement": "83.4% (inactive)"}
{"compound": "CCOC(=O)N1CCc2[nH]c3ccc(C)cc3c2C1", "assay endpoint": "superoxide response (% of plate)", "observed measurement": "110% (inactive)"}
{"compound": "CN1CCCN(C(c2ccccc2)c2ccc(Cl)cc2)CC1 (stereo unspecified)", "assay endpoint": "superoxide response (% of plate)", "observed measurement": "107% (inactive)"}
{"compound": "O=C(O)CCCCCCNC(=O)c1cncc(O)c1", "assay endpoint": "superoxide response (% of plate)", "observed measurement": "112% (inactive)"}

## Task For the compound shown here, c1cnc(N2CCN(Cc3ccc4c(c3)OCO4)CC2)nc1 , give the reported superoxide response (% of plate).
## Result 103% (inactive)
